settings: in isopropanol, 293.15 K
measurementLabel: solubility (mole fraction)
Could you respond with only the numeric value?

Item: O=C(O)[C@@H]1CSCN1 | solubility (mole fraction): 6.8e-05

---

details: in dichloromethane, 303.15 K
measurementLabel: solubility (mole fraction)
Could you respond with only the numeric value?

Item: O=C(O)[C@@H]1CSCN1 | solubility (mole fraction): 0.000292

---

conditions: in acetone, 323.15 K
measurementLabel: solubility (mole fraction)
Could you respond with only the numeric value?

Item: O=C(O)[C@@H]1CSCN1 | solubility (mole fraction): 0.00343

---

conditions: in dichloromethane, 293.15 K
measurementLabel: solubility (mole fraction)
Could you respond with only the numeric value?

Item: O=C(O)[C@@H]1CSCN1 | solubility (mole fraction): 0.000134
